The values you see were collected from PubChem BioAssay (NCI).

Tested on: ACHN renal
Experiment: NCI tumour cell line growth inhibition, 48 h
# TGI values compiled below
Write the number in µM without appending the unit.

Some solved cases for reference:
In [3]: df
Out[3]:
                                     smiles  measured_attribute  unit_spec  reported_measurement
0  COc1cc2c3c(n(C)c(=O)c2cc1OC)-c1cc2c(cc1/C3=C/[C@H](N)CCCCN)OCO2                 TGI         µM                  3.16
1  C[C@H](CCC1=NCCN1)[C@H]1CC[C@H]2[C@@H]3CC[C@@H]4C[C@H](O)CC[C@]4(C)[C@H]3C[C@H](O)[C@]12C                 TGI         µM                  30.5
2  COc1cc(CNc2nc3cc(C(F)(F)F)ccc3nc2C)cc(OC)c1OC                 TGI         µM                  38.1

Please find the next compound below.
TGI for `CCOC(=O)/C(=C\c1ccc(F)cc1)C(C)=O` is 50.7

====

System: OVCAR-5 ovarian
Test: NCI tumour cell line growth inhibition, 48 h
measured_attribute: TGI

Examples from the recorded data:
                                   molecule  measured_attribute  reported_measurement
0  O=C1OCC2=C1C(c1cccc(C(F)(F)F)c1)c1cc3c(cc1N2CCO)CCC3 (stereo not drawn)                 TGI               8.97 µM
1   Cc1cccc2c1C/C(=C\c1cccc(C)c1C(=O)O)C2=O                 TGI              > 100 µM

Given item `Cc1ccc(/C(=C/C=C(C#N)C#N)Sc2ccccn2)cc1` , the value recorded as its TGI is 13.9 µM

Input `COc1ccc(C2=C(c3cc(OC)c(OC)c(OC)c3)C(=O)OC2)cc1OC` . Output TGI: > 48.4 µM

Entry `CCOC(=O)/C(=C\c1ccc(F)cc1)C(C)=O` ; TGI = > 100 µM

Entry NC(=O)NCCCC(NC(=O)OCCCCCn1ccc(=O)[nH]c1=O)C(=O)O (stereo not drawn) , TGI reported as > 100 µM

Entry `CC(=N\N=C\c1ccccn1)/C(C)=N/N=C(C)/C(C)=N/N=C(C)/C(C)=N/N=C/c1ccccn1` , TGI reported as > 100 µM

molecule `O=C(CCCn1ccnc1[N+](=O)[O-])NCCn1ccnc1[N+](=O)[O-]` , TGI observed: > 100 µM

====

System: SF-539 CNS
Experiment: NCI tumour cell line growth inhibition, 48 h
Documented TGI across a set of compounds

In [3]: df
Out[3]:
                                   compound  reported_measurement
0  NC(=O)NCCCC(NC(=O)OCCCCCn1ccc(=O)[nH]c1=O)C(=O)O (stereo unspecified)              > 100 µM

What the record says about CC1CCC2(CC1)N=C1CCC(C)CC1C1(CCC(C)CC1)N2 (stereo unspecified) : TGI is > 100 µM

Please fill in: TGI reported for `CCN1CCC(CC(=O)Nc2n[nH]c3nc(-c4cccs4)c(Br)cc23)CC1` = > 22.2 µM

Per the records, this compound ( C=CCN(CC=C)CC(C(C)=O)C(c1ccccc1)c1c(O)c2ccccc2oc1=O (stereo unspecified) ) has TGI equal to > 100 µM

According to the records, this compound `CCC[CH2][Sn]1([CH2]CCC)[O]C(=O)CN=Cc2ccccc2[O]1` displays TGI of > 100 µM

The reported value for `CC(=O)NC1=CC(=O)c2cc(C)cc(O)c2C1=O` in terms of TGI is 14.8 µM
